assayed_system: Human PD-1/PDCD1 Protein (PD-1) (human, UniProt Q15116 25-167, limits assumed)
Sequence (Q15116 25-167 limits assumed): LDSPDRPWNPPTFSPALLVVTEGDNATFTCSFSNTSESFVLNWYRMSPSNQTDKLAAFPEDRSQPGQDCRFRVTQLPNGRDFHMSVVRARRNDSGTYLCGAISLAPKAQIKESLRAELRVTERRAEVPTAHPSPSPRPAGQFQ
protocol_text: SPR, Biacore 8K; PD-1 captured by anti-His antibody, antibody in flow
# key: entry, value: Kd
readout_type: Kd

1) HM242-D2 (antibody, human IgG1, V domains shown, also called humanized HM242, VH ver.D / VL ver.2) VH: QVQLVQSGPEVKKPGASVKVVCKASGYTFTSYYIQWVRQVPGQGLEWMGWIYPGDGTTKYNEKFKGRVTMTIDTSTSTAYMELRSLRSDDTAVYYCASYYGSYFDYWGQGTLVTVSS VL: DIQMTQSPSSLSASVGDRVTITCRASQDISNYLNWYQQKPDGTVTLLIYYTSKLHSGVPSRFSGSGSGTDYTLTISSLQPEDFATYYCQQSSTLPFTFGQGTKLEIK; < 0.0603 nM
2) HM242-C1 (antibody, human IgG1, V domains shown, also called humanized HM242, VH ver.C / VL ver.1) VH: QVQLVQSGPEVKKPGASVKVVCKASGYTFTSYYIQWVKQRPGQGLEWIGWIYPGDGTTKYNEKFKGRVTMTIDKSTRTAYMELRSLRSDDTAVYYCASYYGSYFDYWGQGTLVTVSS VL: DIQMTQTTSSLSASVGDRVTITCRASQDISNYLNWYQQKPDGTVTLLIYYTSKLHSGVPSRFSGSGSGTDYTLTISSLEQKDFATYYCQQSSTLPFTFGQGTKLEIK; < 0.0179 nM
3) HM242-B1 (antibody, human IgG1, V domains shown, also called humanized HM242, VH ver.B / VL ver.1) VH: QVQLVQSGPEVKKPGASVKVVCKASGYTFTSYYIQWVRQVPGQGLEWMGWIYPGDGTTKYNEKFKGKTTLTIDKSTRTAYMELRSLRSDDTAVYYCASYYGSYFDYWGQGTLVTVSS VL: DIQMTQTTSSLSASVGDRVTITCRASQDISNYLNWYQQKPDGTVTLLIYYTSKLHSGVPSRFSGSGSGTDYTLTISSLEQKDFATYYCQQSSTLPFTFGQGTKLEIK; < 0.0448 nM

Source of measurements: patent US20240317859A1
